Value source: PubChem BioAssay AID1159580

test: chemical genetic growth profiling, strain panel (AID 1159580);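 also: tested at 20 µM; growth read once vehicle control cultures reached saturation at 30 °C; 1 = growth at the plate median or of vehicle wells; lower values mean less growth of the strain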; details: S. cerevisiae deletion strains, growth OD, locus YMR307W, strain GAS1, active compounds read low
Screen size: about 5,500 compounds; about 2,000 (36%) were called active. Inconclusive results (about 18%) are left out. This is one part of the list.
assay.readout: normalized growth

[[record]]
compound = "CC(=O)OCC[N+](C)(C)C"
recorded_measurement = 1.07

[[record]]
compound = "O=C1c2cccc3c([N+](=O)[O-])ccc(c23)C(=O)N1Cc1ccco1"
recorded_measurement = 0.739

[[record]]
compound = "C/C=C1\\C(=O)CC2C3CCC4=CC(=O)CC[C@]4(C)C3CC[C@]12C (stereo not given in full)"
recorded_measurement = 1.01

[[record]]
compound = "Cc1cc(O)c(C=O)c(O)c1C(=O)O"
recorded_measurement = 1.08

[[record]]
compound = "COc1cc2c(cc1OC)[C@@H]1C(=O)c3ccc4oc(C(C)C)cc4c3O[C@@H]1CO2"
recorded_measurement = 0.974

[[record]]
compound = "CCOC(=O)c1[nH]c(Cc2[nH]c(C(=O)OCC)c(C)c2C)c(C)c1C"
recorded_measurement = 0.948

[[record]]
compound = "CC(C)(O)[C@@H]1[C@H]2OC(=O)[C@@H]1[C@]1(O)C[C@H]3O[C@]34C(=O)O[C@H]2[C@]14C"
recorded_measurement = 1.03

[[record]]
compound = "COc1cc2c(cc1OC)C1C(=O)c3c(cc4c(c3O)C=CC(C)(C)O4)OC1CO2 (stereo not given)"
recorded_measurement = 1.18

[[record]]
compound = "Cc1cc(O)c(C)c(O)c1C(=O)O"
recorded_measurement = 1.01

[[record]]
compound = "COc1ccc2c(c1)O[C@@H]1COc3cc(OC)c(OC)cc3[C@@H]1C2=O"
recorded_measurement = 0.909

[[record]]
compound = "Cc1cccc(C)c1NC(=O)C(C)Oc1ccc(Cl)cc1Cl (stereo not given)"
recorded_measurement = 0.929

[[record]]
compound = "NCCSSCCN"
recorded_measurement = 0.996

[[record]]
compound = "C[N+](C)(C)CCOC(N)=O"
recorded_measurement = 1.16

[[record]]
compound = "CCOC(=O)c1c(C)cc(O)c(C)c1O"
recorded_measurement = 0.923

[[record]]
compound = "O=C(Oc1ccc(C(F)(F)F)cc1[N+](=O)[O-])c1c(F)cccc1F"
recorded_measurement = 0.213

[[record]]
compound = "S=c1nc[nH]c2nc[nH]c12"
recorded_measurement = 1.08

[[record]]
compound = "CC(=O)C1CCC2C3CC(=O)C4=CC(=O)CCC4(C)C3CCC12C (stereo not given)"
recorded_measurement = 1.01

[[record]]
compound = "COP(=O)(OC)OC=C(Cl)Cl"
recorded_measurement = 1.1

[[record]]
compound = "CC(=O)[C@H]1CCC2C3CCC4=CC(=O)CC[C@]4(C)C3CC[C@@]21C (stereo not given in full)"
recorded_measurement = 0.78

[[record]]
compound = "CCC(=O)O[C@H]1CCC2C3CCC4=CC(=O)CC[C@]4(C)C3CC[C@@]21C (stereo not given in full)"
recorded_measurement = 0.917

[[record]]
compound = "ClC1=C(Cl)C2(Cl)C3C(Cl)C=CC3C1(Cl)C2(Cl)Cl (stereo not given)"
recorded_measurement = 1.06

[[record]]
compound = "N#CCOc1ccc(Cl)cc1Cl"
recorded_measurement = 1.06

[[record]]
compound = "CC(C)(C)c1onc(OCP(=O)(O)O)c1CC(N)C(=O)O (stereo not given)"
recorded_measurement = 1.03

[[record]]
compound = "COc1cc2c(cc1OC)[C@@H]1C(=O)c3ccc(OC)c(CC=C(C)C)c3O[C@@H]1CO2"
recorded_measurement = 1.08

[[record]]
compound = "COC(=O)c1sccc1OC(=O)c1c(F)cccc1F"
recorded_measurement = 0.975


* * *

Recorded normalized growth values for a group of compounds are listed next.
assay: chemical genetic growth profiling, strain panel (AID 1159580); conditions: S. cerevisiae deletion strains, growth OD, locus YDR195W, strain ref2
The whole screen tested about 5,500 compounds, of which about 2,000 (36%) were called active. Another 18% or so got no clear call; they are omitted. The list shows a part of the results.
assay.readout: normalized growth

[[record]]
compound = "C[C@H]1CC2C([C@@H](O)C[C@@]3(C)C2CC[C@]3(O)C(=O)CO)[C@@]2(C)C=CC(=O)C=C12 (stereo not given in full)"
recorded_measurement = "0.934 (inactive)"

[[record]]
compound = "COc1cc2c(cc1OC)[C@@H]1C(=O)c3ccc(O)c(CC=C(C)C)c3O[C@@H]1CO2"
recorded_measurement = "0.963 (inactive)"

[[record]]
compound = "COc1cc2c(cc1OC)[C@@H]1C(=O)c3ccc(OC)c(CC=C(C)C)c3O[C@@H]1CO2"
recorded_measurement = "1.06 (inactive)"

[[record]]
compound = "COc1cc2c(cc1OC)[C@@H]1C(=O)c3ccc4oc(C(C)C)cc4c3O[C@@H]1CO2"
recorded_measurement = "0.982 (inactive)"

[[record]]
compound = "CC(=O)OCC(=O)[C@@]1(O)CCC2C3CCC4=CC(=O)CC[C@]4(C)C3C(=O)C[C@@]21C (stereo not given in full)"
recorded_measurement = "0.913 (inactive)"


* * *

assay: chemical genetic growth profiling, strain panel (AID 1159580);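 also: tested at 20 µM; growth read once vehicle control cultures reached saturation at 30 °C; 1 = growth at the plate median or of vehicle wells; lower values mean less growth of the strain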; conditions: S. cerevisiae deletion strains, growth OD, locus YDL005C, strain med2, active compounds read low
Among all 5,500 compounds or so, about 2,000 (36%) were called active. Not shown: some 18% with an inconclusive outcome. The list shows a part of the results.
Lab note: cut-off is 1. Strictly less in normalized growth is Met. Exactly 1 or more is Not met.

[[record]]
molecule = "CCN(CC)CCCC(C)Nc1ccnc2cc(Cl)ccc12 (stereo unspecified)"
label_class = "Not met"

[[record]]
molecule = "COc1cc(/C=C/C(=O)/C=C(O)/C=C/c2ccc(O)c(OC)c2)ccc1O"
label_class = "Met"


* * *

assay: chemical genetic growth profiling, strain panel (AID 1159580);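 also: tested at 20 µM; growth read once vehicle control cultures reached saturation at 30 °C; 1 = growth at the plate median or of vehicle wells; lower values mean less growth of the strain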; settings: S. cerevisiae deletion strains, growth OD, locus YOR265W, strain rbl2, active compounds read low
Hit rate of the full screen: of about 5,500 compounds, about 2,000 (36%) were called active. Inconclusive results (about 18%) are left out. Some of the results follow.
Entries and their normalized growth values follow.
assay.readout: normalized growth

[[record]]
compound = "CCOC(=O)C(Cc1ccc(O)cc1)NC(C)=O (configuration not stated)"
recorded_measurement = 1

[[record]]
compound = "CCCCCCCCCCCCCCCC[N+](C)(C)C"
recorded_measurement = 0.0534

[[record]]
compound = "NCC1CCC(C(=O)O)CC1 (configuration not stated)"
recorded_measurement = 0.994

[[record]]
compound = "O=C(O)C1(O)C[C@@H](O)C(O)[C@H](O)C1 (some centres not stated)"
recorded_measurement = 0.989

[[record]]
compound = "COCCc1ccc(OCC(O)CNC(C)C)cc1 (configuration not stated)"
recorded_measurement = 0.995

[[record]]
compound = "COc1ccc2cc([C@H](C)C(=O)O)ccc2c1"
recorded_measurement = 0.994

[[record]]
compound = "CC(=O)O[C@H]1[C@@H]2[C@@H](OC(=O)Cc3ccccc3)[C@@H](C)C[C@]2(OC(C)=O)C(=O)/C(C)=C/[C@H]2[C@H](CC[C@@]13CO3)C2(C)C"
recorded_measurement = 0.983

[[record]]
compound = "COc1cc2c(cc1OC)Cc1cc(OC)c(OC)cc1Cc1cc(OC)c(OC)cc1C2"
recorded_measurement = 1.02

[[record]]
compound = "Cc1cccc(C)c1OCC(C)N (configuration not stated)"
recorded_measurement = 1.01

[[record]]
compound = "CC(=O)N[C@@H](CC(C)C)C(=O)O"
recorded_measurement = 0.998

[[record]]
compound = "CNC(C)[C@H](O)c1ccccc1 (some centres not stated)"
recorded_measurement = 1.01

[[record]]
compound = "CCCCCCCCNC(C)C(O)c1ccc(SC(C)C)cc1 (configuration not stated)"
recorded_measurement = 0.056


* * *

assay: chemical genetic growth profiling, strain panel (AID 1159580);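 also: tested at 20 µM; growth read once vehicle control cultures reached saturation at 30 °C; 1 = growth at the plate median or of vehicle wells; lower values mean less growth of the strain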; conditions: S. cerevisiae deletion strains, growth OD, locus YBR135W, strain CKS1, active compounds read low
In all, about 5,500 compounds went through this assay and about 2,000 (36%) were called active. Roughly 18% stayed inconclusive and do not appear here. The list shows a part of the results.
assay.readout: normalized growth

[[record]]
compound = "COc1cc(NC(=S)N(C)C)c(OC)cc1Cl"
recorded_measurement = "0.996 (inactive)"

[[record]]
compound = "Cc1ccccc1C(=O)Oc1ccc(C(F)(F)F)cc1[N+](=O)[O-]"
recorded_measurement = "0.964 (inactive)"

[[record]]
compound = "Cc1ccc(OCC2SCCN2C(=O)c2ccc(C(F)(F)F)cc2)c([N+](=O)[O-])c1 (centres undefined)"
recorded_measurement = "1.01 (inactive)"

[[record]]
compound = "COc1cc(NC(=S)NNS(=O)(=O)c2ccc(C)cc2)c(OC)cc1Cl"
recorded_measurement = "0.978 (inactive)"

